# ASSAY_TEXT: qHTS assay to identify small molecule antagonists of the progesterone receptor (PR) signaling pathway - cell viability counter screen (AID 1346798); also: nearly all actives have a fitted effect of over 50% in size
# APPLIED_CONDITIONS: PR-UAS-bla HEK293T viability, CellTiter-Glo luminescence, 16 h; series mostly up to 92.4 µM
Records with an inconclusive call do not appear. Calls of active or inactive are those of the source. Calls follow the shape of the dose curve; as a rule, active = well fitted cell-killing curve with a large enough effect in the repeat runs; inconclusive = weak or mixed curves, or effect the other way; inactive = no such curve, though single readings can be large or run the other way.
Choose one outcome from this list and give only that: active, inactive

Answered examples (8):
CCc1ccccc1C    inactive
O=C(CCl)C(Cl)Cl    active
O=C(Cl)c1ccc(Cl)cc1    inactive
Nc1ccc([N+](=O)[O-])cc1Cl    inactive
ClCc1ccc(Cl)cc1Cl    inactive
CCSC(C)CC1CC(=O)C(/C(CC)=N/OC/C=C/Cl)=C(O)C1 (centres undefined)    inactive
O=[N+]([O-])O.O=[N+]([O-])O.[Cd]    active
CCOC(=O)CC(=O)CCl    inactive

Just curious, what result did C[C@@H]1CC[C@@]2(OC1)O[C@H]1[C@@H](O)[C@H]3[C@@H]4CC[C@H]5C[C@@H](O[C@@H]6O[C@H](CO)[C@H](O[C@@H]7O[C@H](CO)[C@@H](O)[C@H](O[C@@H]8OC[C@@H](O)[C@H](O)[C@H]8O)[C@H]7O[C@@H]7O[C@H](CO)[C@@H](O)[C@H](O[C@@H]8O[C@H](CO)[C@@H](O)[C@H](O)[C@H]8O)[C@H]7O)[C@H](O)[C@H]6O)[C@H](O)C[C@]5(C)[C@H]4CC[C@]3(C)[C@H]1[C@@H]2C get here? active

====

# ASSAY_TEXT: Caspase-3/7 induction in CHO-K1 cells by small molecules, qHTS cell viability counter screen (AID 1346979); also: nearly all actives have a fitted effect of over 35% in size; also: potency is read from the fitted curve at half-maximal effect
# APPLIED_CONDITIONS: CellTiter-Fluor fluorescence, 17 h; series mostly up to 92.4 µM
Results filed as inconclusive are left out. Active and inactive are the calls of the source. Calls follow the shape of the dose curve; as a rule, active = well fitted cell-killing curve with a large enough effect in the repeat runs; inconclusive = weak or mixed curves, or effect the other way; inactive = no such curve, though single readings can be large or run the other way.
ASSAY_METRIC: Potency

# example entries with known answers
COc1ccc(OC)c(C=O)c1    inactive
O=C(CCCN1CCC2(CC1)C(=O)NCN2c1ccccc1)c1ccc(F)cc1    23.7 µM (active)
S=C(SSC(=S)N1CCCCC1)N1CCCCC1    1.88 µM (active)
Cn1cc(C2=C(c3cn(C4CCN(Cc5ccccn5)CC4)c4ccccc34)C(=O)NC2=O)c2ccccc21    10.6 µM (active)
N#Cc1ccc(O)cc1    inactive

For reference, reported Potency for CC(c1ccc(O)cc1)c1ccc(O)cc1 stands at inactive

For reference, reported Potency for C[As+](C)(C)CC(=O)[O-] stands at inactive

For reference, reported Potency for CC(C)(COCC1CO1)COCC1CO1 (configuration not stated) stands at inactive

For reference, reported Potency for COc1cccc(C(=O)CCN[C@@H](C)[C@H](O)c2ccccc2)c1 stands at 26.6 µM (active)

For reference, reported Potency for Clc1ccc(-c2ccc(Cl)c(Cl)c2Cl)c(Cl)c1Cl stands at inactive

For reference, reported Potency for Cc1ccc(CCl)cc1 stands at inactive

For reference, reported Potency for COc1ccc(/C(=C/C(=O)N2CCOCC2)c2ccc(Cl)cc2)cc1OC stands at inactive

====

# ASSAY_TEXT: A CellTox Green Cytotoxicity Assay to monitor cytotoxicity in HepG2 cells - 40 hour (AID 1224879); also: nearly all actives have a fitted effect of over 40% in size
# APPLIED_CONDITIONS: CellTox Green fluorescence; series mostly up to 76.8 µM
Inconclusive results are not listed. Active and inactive are the calls of the source. Calls follow the shape of the dose curve; as a rule, active = well fitted activation curve with a large enough effect in the repeat runs; inconclusive = weak or mixed curves; inactive = flat fitted curve, though single readings scatter.
Choose one outcome from this list and give only that: label 1 = active, label 0 = inactive

COP(=S)(OC)Oc1cc(Cl)c(Br)cc1Cl    label 0
ClC1=C(Cl)[C@]2(Cl)[C@@H]3[C@@H](Cl)[C@H](Cl)C[C@@H]3[C@@]1(Cl)C2(Cl)Cl    label 0
C[C@@H]1O[C@@H](O[C@H]2C[C@@H](O)[C@]3(CO)[C@H]4[C@H](O)C[C@]5(C)[C@@H](C6=CC(=O)OC6)CC[C@]5(O)[C@@H]4CC[C@]3(O)C2)[C@H](O)[C@H](O)[C@H]1O    label 0
O=c1oc2ccccc2c(O)c1Cc1c(O)c2ccccc2oc1=O    label 0
CC(C)CCCCCCCOP(=O)(Oc1ccccc1)Oc1ccccc1    label 0

Just curious, what result did CS(=O)(=O)c1ccc(C(=O)C2C(=O)CCCC2=O)c([N+](=O)[O-])c1 get here? label 1

Just curious, what result did CC(C)Oc1cccc(NC(=O)c2ccccc2C(F)(F)F)c1 get here? label 1

Just curious, what result did O=C(NC(=O)c1c(F)cccc1F)Nc1cc(Cl)c(OC(F)(F)C(F)F)c(Cl)c1 get here? label 0

Just curious, what result did Cc1cc(SCc2sc(-c3ccc(C(F)(F)F)c(F)c3)nc2C)ccc1OCC(=O)O get here? label 0
